- Tested on: SOS1 function in cells: cellular pERK in PC-9 cells (EGFR Ex19Del)
- EXPERIMENTAL_PROTOCOL: pERK potency assay in PC-9 cells (AlphaLISA SureFire Ultra p-ERK1/2)
- Assay type: cell-based
- EXPERIMENTAL_SETUP: 1 hour incubation
List of pIC50 values.
The quantity pIC50 is defined as the negative base-10 logarithm of the molar concentration.

Before answering, review these 3 worked examples.
compound=C[C@@H](Nc1ncnc2c1cc(C1(C#N)CCN(C)CC1)c(=O)n2C)c1cccc(C(F)F)c1F assay_result=7.20
compound=COC1(c2cc3c(N[C@H](C)c4cccc(C(F)F)c4F)ncnc3n(C)c2=O)CCN(C)CC1 assay_result=5.65
compound=C[C@@H](Nc1ncnc2c1cc(C1=CCS(=O)(=O)CC1)c(=O)n2CC#N)c1cccc(C(F)F)c1F assay_result=7.09

The recorded pIC50 with SOS1 function in cells: cellular pERK in PC-9 cells (EGFR Ex19Del) for COC1(c2cc3c(N[C@H](C)c4cccc(C(F)F)c4F)ncnc3n(C)c2=O)CCS(=O)(=O)C1 (stereo partly shown) [Example 32-73] was 7.24
